biological target: Sodium-dependent dopamine transporter (Rattus norvegicus); experiment: Inhibition of [3H]dopamine uptake in rat striatal synaptosomes
Sequence (P23977 whole entry): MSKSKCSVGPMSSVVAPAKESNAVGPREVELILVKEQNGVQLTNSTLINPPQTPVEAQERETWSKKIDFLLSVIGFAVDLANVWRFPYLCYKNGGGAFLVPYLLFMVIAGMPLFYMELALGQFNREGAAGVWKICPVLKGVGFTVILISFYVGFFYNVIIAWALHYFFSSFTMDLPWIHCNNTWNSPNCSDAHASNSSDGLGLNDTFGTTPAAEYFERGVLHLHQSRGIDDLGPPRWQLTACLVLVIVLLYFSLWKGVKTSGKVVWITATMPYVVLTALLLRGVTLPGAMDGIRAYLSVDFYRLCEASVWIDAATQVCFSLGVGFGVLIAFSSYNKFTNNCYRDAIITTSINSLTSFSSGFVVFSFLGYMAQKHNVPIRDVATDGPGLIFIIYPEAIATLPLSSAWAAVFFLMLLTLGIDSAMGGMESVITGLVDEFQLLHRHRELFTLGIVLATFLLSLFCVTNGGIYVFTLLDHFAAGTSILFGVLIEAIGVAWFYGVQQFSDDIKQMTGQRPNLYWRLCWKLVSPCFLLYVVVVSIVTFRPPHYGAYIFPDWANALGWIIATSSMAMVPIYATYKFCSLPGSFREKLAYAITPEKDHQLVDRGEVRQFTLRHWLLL
pIC50: −log10 of the molar value.
PARAMETER: pIC50

Known pIC50 results, listed for orientation:
[
  {
    "CHEMICAL_STRUCTURE": "c1ccc(C[C@@H]2NCCc3cc4c(cc32)OCO4)cc1",
    "RESULT_NUMBER": 5.44
  },
  {
    "CHEMICAL_STRUCTURE": "c1ccc(C[C@H]2NCCc3cc4c(cc32)OCO4)cc1",
    "RESULT_NUMBER": 5.17
  },
  {
    "CHEMICAL_STRUCTURE": "CCCN1CCc2cc3c(cc2[C@H]1Cc1ccccc1)OCO3",
    "RESULT_NUMBER": 4.36
  }
]

1: CCCN1CCc2cc(O)c(O)cc2[C@H]1Cc1ccccc1
2: CCCN1CCc2cc3c(cc2[C@@H]1Cc1ccccc1)OCO3
[in] Which value of pIC50 is numerically greater: that of 1 or that of 2 ? Field: selected label. Fill in the label of the entry you choose.
[out] 2
(2: 4.69, 1: 4.04)

====

target: D(1A) dopamine receptor (Rattus norvegicus); assay: Inhibition of [3H]-SCH- 23390 binding to the rat striatal membranes
PARAMETER: IC50 (µM)

[
  {
    "CHEMICAL_STRUCTURE": "CCCN1CCc2cc(O)c(O)cc2[C@@H]1Cc1ccccc1",
    "RESULT_NUMBER": 16.6
  }
]

P: c1ccc(C[C@@H]2NCCc3cc4c(cc32)OCO4)cc1
Q: CCCN1CCc2cc3c(cc2[C@@H]1Cc1ccccc1)OCO3
[in] Which value of IC50 is numerically greater: that of P or that of Q ? Field: selected label. Fill in the label of the entry you choose.
[out] Q
(Q: 51.9 µM, P: 23.9 µM)

====

biological target: D(2) dopamine receptor (Rattus norvegicus); assay: Inhibition of [3H]-Raclopride binding to the rat striatal membranes
Sequence (P61169 whole entry): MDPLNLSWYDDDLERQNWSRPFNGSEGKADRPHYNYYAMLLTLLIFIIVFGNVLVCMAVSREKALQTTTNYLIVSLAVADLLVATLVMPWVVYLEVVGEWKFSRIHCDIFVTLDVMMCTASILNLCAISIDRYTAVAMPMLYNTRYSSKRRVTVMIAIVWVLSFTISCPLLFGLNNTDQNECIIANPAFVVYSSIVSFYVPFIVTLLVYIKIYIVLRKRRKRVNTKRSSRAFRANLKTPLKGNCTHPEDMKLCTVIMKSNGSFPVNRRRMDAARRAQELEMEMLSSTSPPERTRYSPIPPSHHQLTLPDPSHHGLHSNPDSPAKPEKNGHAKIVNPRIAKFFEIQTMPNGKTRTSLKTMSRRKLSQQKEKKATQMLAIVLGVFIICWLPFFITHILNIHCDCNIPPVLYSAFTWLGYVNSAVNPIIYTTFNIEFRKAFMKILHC
pIC50: −log10 of the molar value.
PARAMETER: pIC50

Known pIC50 results, listed for orientation:
[
  {
    "CHEMICAL_STRUCTURE": "c1ccc(C[C@H]2NCCc3cc4c(cc32)OCO4)cc1",
    "pIC50": 4.27
  },
  {
    "CHEMICAL_STRUCTURE": "CCCN1CCc2cc3c(cc2[C@@H]1Cc1ccccc1)OCO3",
    "pIC50": 4.66
  }
]

1: CCCN1CCc2cc(O)c(O)cc2[C@H]1Cc1ccccc1
2: CCCN1CCc2cc(O)c(O)cc2[C@@H]1Cc1ccccc1
3: c1ccc(C[C@@H]2NCCc3cc4c(cc32)OCO4)cc1
[in] Please order the records by their reported pIC50, lowest number first. Rank them, then answer with their labels in that order.
[out] 1, 2, 3

====

Listed here: items and their measured IC50.
molecular target: D(1A) dopamine receptor (Rattus norvegicus, UniProt P18901); assay: Inhibition of [3H]-SCH- 23390 binding to the rat striatal membranes
Sequence (P18901 whole entry): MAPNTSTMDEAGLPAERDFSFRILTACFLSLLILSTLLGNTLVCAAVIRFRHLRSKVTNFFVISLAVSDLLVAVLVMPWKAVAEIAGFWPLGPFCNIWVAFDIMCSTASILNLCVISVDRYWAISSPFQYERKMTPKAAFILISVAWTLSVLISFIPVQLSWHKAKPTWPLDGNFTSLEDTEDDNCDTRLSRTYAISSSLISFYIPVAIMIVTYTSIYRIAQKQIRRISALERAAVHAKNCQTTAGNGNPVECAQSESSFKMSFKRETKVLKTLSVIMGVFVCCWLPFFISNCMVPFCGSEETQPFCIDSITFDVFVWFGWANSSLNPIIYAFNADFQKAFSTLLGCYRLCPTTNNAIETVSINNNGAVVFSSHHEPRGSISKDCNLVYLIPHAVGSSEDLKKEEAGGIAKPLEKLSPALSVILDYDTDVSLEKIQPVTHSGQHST

[in] What does the data say about its IC50? Entry: "CCCN1CCc2cc(O)c(O)cc2[C@H]1Cc1ccccc1"
[out] > 100 µM

[in] What does the data say about its IC50? Entry: "CCCN1CCc2cc3c(cc2[C@H]1Cc1ccccc1)OCO3"
[out] > 100 µM

[in] What does the data say about its IC50? Entry: "c1ccc(C[C@H]2NCCc3cc4c(cc32)OCO4)cc1"
[out] > 100 µM
